Provenance of the data: ChEMBL document CHEMBL3813699

system: Staphylococcus aureus; assay: Antibacterial activity against methicillin-resistant Staphylococcus aureus BAA-1707 incubated for 16 to 18 hrs by broth microdilution method; assay type: functional
Under this convention, true denotes MIC strictly below 6 µM and false denotes MIC at or above 6 µM.

Observe how each entry below is paired with its result.
| compound structure | assay target | answer label |
| --- | --- | --- |
| CC(=O)NC[C@H]1CN(c2ccc(N3CCOCC3)c(F)c2)C(=O)O1 | Staphylococcus aureus | false |
| Oc1c(Br)cc(Br)c2nc3cc(Br)c(Br)cc3nc12 | Staphylococcus aureus | false |
| Oc1c(Br)cc(Br)c2nc3ccc(Br)cc3nc12 | Staphylococcus aureus | true |
| Oc1ccc(I)c2nc3cc(Cl)c(Cl)cc3nc12 | Staphylococcus aureus | true |

Identify whether the compound Cc1ccc2c(Br)cc(Br)c(O)c2n1 records MIC below 6 µM. true

Identify whether the compound Oc1c(I)cc(I)c2nccnc12 records MIC below 6 µM. true

Identify whether the compound Oc1c(Br)cc(Br)c2nccnc12 records MIC below 6 µM. false

Identify whether the compound Oc1c(I)cc(Cl)c2nc3ccccc3nc12 records MIC below 6 µM. true

Identify whether the compound Oc1c(Br)cc(Br)c2nc3cc4ccccc4cc3nc12 records MIC below 6 µM. false

###

tested on: Staphylococcus aureus; experiment: Antibacterial activity against methicillin-resistant Staphylococcus aureus BAA-1707 incubated for 16 to 18 hrs by broth microdilution method; format: functional
Under this convention, 1 (yes) denotes MIC strictly below 3 µM and 0 (no) denotes MIC at or above 3 µM.

Observe how each entry below is paired with its result.
| compound | answer label |
| --- | --- |
| Oc1ccc(Br)c2nc3cc(Cl)c(Cl)cc3nc12 | 1 (yes) |
| Oc1c(Cl)cc(I)c2nc3ccccc3nc12 | 1 (yes) |
| Oc1c(I)cc(I)c2nc3ccccc3nc12 | 0 (no) |

Identify whether the compound Oc1c(Br)cc(Br)c2nc3cc(Cl)c(Cl)cc3nc12 records MIC below 3 µM. 0 (no)

Identify whether the compound Oc1c(Br)cc(I)c2nc3cc(Cl)c(Cl)cc3nc12 records MIC below 3 µM. 1 (yes)

Identify whether the compound Oc1ccc(Br)c2nc3cc(Br)c(Br)cc3nc12 records MIC below 3 µM. 1 (yes)

Identify whether the compound CCCCCCCCCC(=O)N[C@@H](Cc1c[nH]c2ccccc12)C(=O)N[C@@H](CC(N)=O)C(=O)N[C@@H](CC(=O)O)C(=O)N[C@@H]1C(=O)NCC(=O)N[C@@H](CCCN)C(=O)N[C@@H](CC(=O)O)C(=O)N[C@H](C)C(=O)N[C@@H](CC(=O)O)C(=O)NCC(=O)N[C@H](CO)C(=O)N[C@@H]([C@H](C)CC(=O)O)C(=O)N[C@@H](CC(=O)c2ccccc2N)C(=O)O[C@@H]1C [DAPTOMYCIN] records MIC below 3 µM. 0 (no)

Identify whether the compound Oc1c(Cl)cc(Cl)c2nc3ccccc3nc12 records MIC below 3 µM. 0 (no)

###

test system: Staphylococcus aureus; experiment: Antibiofilm activity against methicillin-resistant Staphylococcus aureus BAA-1707 assessed as biofilm eradication incubated for 24 hrs by CBD assay; format: functional
Catalogue of MBEC values

Solved cases below.
| compound structure | value reported |
| --- | --- |
| CN[C@@H](CC(C)C)C(=O)N[C@H]1C(=O)N[C@@H](CC(N)=O)C(=O)N[C@H]2C(=O)N[C@H]3C(=O)N[C@H](C(=O)N[C@@H](C(=O)O)c4cc(O)cc(O)c4-c4cc3ccc4O)[C@H](O)c3ccc(c(Cl)c3)Oc3cc2cc(c3O[C@H]2O[C@@H](CO)[C@H](O)[C@@H](O)[C@@H]2O[C@@H]2C[C@@](C)(N)[C@@H](O)[C@@H](C)O2)Oc2ccc(cc2Cl)[C@H]1O | >2000 µM |
| Oc1ccc(I)c2nc3cc(Cl)c(Cl)cc3nc12 | >200 µM |

GET /values?readout=MBEC&system=Staphylococcus aureus&item= CCCCCCCCCC(=O)N[C@@H](Cc1c[nH]c2ccccc12)C(=O)N[C@@H](CC(N)=O)C(=O)N[C@@H](CC(=O)O)C(=O)N[C@@H]1C(=O)NCC(=O)N[C@@H](CCCN)C(=O)N[C@@H](CC(=O)O)C(=O)N[C@H](C)C(=O)N[C@@H](CC(=O)O)C(=O)NCC(=O)N[C@H](CO)C(=O)N[C@@H]([C@H](C)CC(=O)O)C(=O)N[C@@H](CC(=O)c2ccccc2N)C(=O)O[C@@H]1C >2000 µM

GET /values?readout=MBEC&system=Staphylococcus aureus&item= CC(=O)NC[C@H]1CN(c2ccc(N3CCOCC3)c(F)c2)C(=O)O1 >2000 µM
